protocol notes: Pharmacokinetics of MNP in the rat (plasma, LC/MS/MS)
Type: in vivo, male Sprague-Dawley rats
measurement setup: male, Sprague-Dawley, plasma, po, 200 mg/kg p.o., approximate value, read-out: ˜t1/2
value kind: half-life

Prompt line: Recorded half-life of C[C@@H]1CC=NN1C(=O)c1cccnc1 , please.
Response line: ~1.5 h

* * *

protocol notes: Pharmacokinetics of MNP in the rat (plasma, LC/MS/MS)
Type: in vivo, male Sprague-Dawley rats
measurement setup: male, Sprague-Dawley, plasma, intravenous, 5 mg/kg i.v., 120 min, mean ± s.e.m., 3 rats, read-out: MNP plasma levels
value kind: concentration at 120 min (ng/mL)
The reply should contain only the number, in ng/mL.

Prompt line: Give its concentration at 120 min value. Item: C[C@@H]1CC=NN1C(=O)c1cccnc1
Response line: 272

* * *

protocol notes: Pharmacokinetics of MNP in the rat (plasma, LC/MS/MS)
Format: in vivo, male Sprague-Dawley rats
measurement setup: male, Sprague-Dawley, plasma, oral, 50 mg/kg p.o., 240 min, mean ± s.e.m., 3 rats, read-out: MNP plasma levels
value kind: concentration at 240 min (ng/mL)
Field: numeric (ng/mL). Do not append units.

Prompt line: Please report the recorded concentration at 240 min for C[C@@H]1CC=NN1C(=O)c1cccnc1 .
Response line: 2470

* * *

protocol notes: Pharmacokinetics of MNP in the rat (plasma, LC/MS/MS)
Type: in vivo, male Sprague-Dawley rats
measurement setup: male, Sprague-Dawley, plasma, po, 200 mg/kg p.o., approximate value
value kind: AUC

Prompt line: What value of AUC has been reported for the following compound? C[C@@H]1CC=NN1C(=O)c1cccnc1
Response line: ~134 µg·h/mL

* * *

protocol notes: Pharmacokinetics of MNP in the rat (plasma, LC/MS/MS)
Type: in vivo, male Sprague-Dawley rats
measurement setup: male, Sprague-Dawley, plasma, oral, 50 mg/kg p.o., 1440 min, mean ± s.e.m., 3 rats, read-out: MNP plasma levels
Protocol: Pharmacokinetic experiments were conducted. […] The samples were collected in heparin-coated microtainers, spun down in a microcentrifuge (14,000 rpm for 7 minutes) to separate out the blood plasma and frozen until analyzed. Plasma levels were quantitated by LC/MS/MS analysis (Applied Biosystems/MDS SCIEX API 3000). […]
value kind: concentration at 1440 min (ng/mL)
The response must be a number in ng/mL with no trailing unit.

Prompt line: Quick one: concentration at 1440 min of C[C@@H]1CC=NN1C(=O)c1cccnc1 ?
Response line: 9

* * *

protocol notes: Pharmacokinetics of MNP in the rat (plasma, LC/MS/MS)
Type: in vivo, male Sprague-Dawley rats
measurement setup: male, Sprague-Dawley, plasma, oral, 200 mg/kg p.o., 5 min, mean ± s.e.m., 3 rats, read-out: MNP plasma levels
value kind: concentration at 5 min (µg/mL)
Give the quantity in µg/mL, number only.

Prompt line: Which concentration at 5 min is reported for this compound? C[C@@H]1CC=NN1C(=O)c1cccnc1 [MNP]
Response line: 50.3

* * *

protocol notes: Pharmacokinetics of MNP in the rat (plasma, LC/MS/MS)
Assay type: in vivo, male Sprague-Dawley rats
measurement setup: male, Sprague-Dawley, plasma, oral, 200 mg/kg p.o., 60 min, mean ± s.e.m., 3 rats, read-out: MNP plasma levels
value kind: concentration at 60 min (ng/mL)
Note: unit ng/mL is implicit; provide only the numeric part.

Prompt line: Would you mind telling me what concentration at 60 min value was observed for C[C@@H]1CC=NN1C(=O)c1cccnc1 [MNP] ?
Response line: 21600

* * *

protocol notes: Pharmacokinetics of MNP in the rat (plasma, LC/MS/MS)
Format: in vivo, male Sprague-Dawley rats
measurement setup: male, Sprague-Dawley, plasma, oral, 200 mg/kg p.o. vs 5 mg/kg i.v., effects of saturation and accumulation unknown, read-out: ˜Bioavailability (Foral; %)
value kind: bioavailability

Prompt line: For the compound shown here, C[C@@H]1CC=NN1C(=O)c1cccnc1 , give the reported bioavailability.
Response line: ~80%

* * *

protocol notes: Pharmacokinetics of MNP in the rat (plasma, LC/MS/MS)
Assay type: in vivo, male Sprague-Dawley rats
measurement setup: male, Sprague-Dawley, plasma, oral, 50 mg/kg p.o., 480 min, mean ± s.e.m., 3 rats, read-out: MNP plasma levels
value kind: concentration at 480 min (ng/mL)
Output spec: scalar in ng/mL, unitless text.

Prompt line: Request the reported concentration at 480 min associated with C[C@@H]1CC=NN1C(=O)c1cccnc1 [MNP]
Response line: 2850
